Documented growth inhibition across a set of compounds
test: NCI Yeast Anticancer Drug Screen. Data for the sgs1 mgt1 strain (AID 161);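 also: 0% = growth of cultures given vehicle only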; settings: S. cerevisiae sgs1 mgt1 strain, at 5.0 µM (retest, dose inferred, filed as 0.5), stronger effect = higher value
This is part of a sample that, as a whole, favours compounds with a hit. Of some 79,000 tested, about 15% had one in any assay.
Measurement Name: growth inhibition (%)

INSERT INTO results (compound, measurement_name, display_unit, assay_value) VALUES
  ('Brc1c2nc3ccccc3nc2n2ccc3ccccc3c12', 'growth inhibition', '%', -18),
  ('CCN(CC)C(=S)Nc1ccc(Cl)cc1', 'growth inhibition', '%', -62),
  ('O=c1c2c3ccccc3[nH]c2c2cccc3c2n1CCC3', 'growth inhibition', '%', 13),
  ('C[n+]1c(/C=C\c2ccccc2)sc2ccccc21', 'growth inhibition', '%', 33),
  ('Cc1cc(Cc2ccccc2)ccc1O', 'growth inhibition', '%', -1),
  ('Cc1c(O)c(Br)c(C)c(O)c1Br (tested in a mixture with another compound)', 'growth inhibition', '%', -2),
  ('O=C1c2cccc(S(=O)(=O)O)c2C(=O)c2cccc([N+](=O)[O-])c21', 'growth inhibition', '%', 5),
  ('O=c1c2ccccc2nc(-c2ccccc2)n1NC(=S)Nc1ccc(Cl)cc1[N+](=O)[O-]', 'growth inhibition', '%', 4),
  ('N#CSc1ccc2nc(NCO)sc2c1', 'growth inhibition', '%', 18),
  ('Cc1ccc(S(=O)(=O)NNc2nc(N(C)C)nc(N(C)C)n2)cc1', 'growth inhibition', '%', 3),
  ('O=Cc1ccc(-c2nccc3c2[nH]c2ccccc23)o1', 'growth inhibition', '%', 17),
  ('Cn1c(=O)cc2c3c(ccc(C(=O)O)c31)C(=O)c1ccccc1-2', 'growth inhibition', '%', 2),
  ('CC(C)S(=O)(=O)ON1C(=O)c2ccc(N(C)C)cc2C1=O', 'growth inhibition', '%', 16),
  ('COc1cc2c(c(-c3cn(C)c4ccccc34)c1OC)OCO2', 'growth inhibition', '%', 4),
  ('CCOC(=O)C(=Cc1ccc(OC)cc1)C(=O)OCC', 'growth inhibition', '%', -3),
  ('CCNc1cc2c3c(c1)CCCN3CCC2', 'growth inhibition', '%', 14),
  ('NC(=O)c1cccn1Cc1ccccc1SSc1ccccc1Cn1cccc1C(N)=O', 'growth inhibition', '%', 47),
  ('O=C(N/C(=C\c1ccc(Br)cc1)c1nc2ccccc2[nH]1)c1ccccc1', 'growth inhibition', '%', -2),
  ('CCCCCCC1CCC(CCCCCCCC(=O)N2CCN(C)CC2)C(C/C=C/CCCCCCCC(=O)N2CCN(C)CC2)C1CCCCC (configuration not stated)', 'growth inhibition', '%', 1),
  ('O=c1oc2ccccc2c(O)c1/C=N/C(=S)NCc1ccccc1', 'growth inhibition', '%', -19),
  ('COc1ccccc1C(=O)[O][Sn]([c]1ccccc1)([c]1ccccc1)[c]1ccccc1', 'growth inhibition', '%', 99),
  ('CN=S(=O)(OCCCCOS(=O)(=NC)c1ccccc1)c1ccccc1 (configuration not stated)', 'growth inhibition', '%', 20),
  ('CC(=O)Nc1cc(Cl)c2c(c1)C(=O)c1ccccc1-2', 'growth inhibition', '%', 43),
  ('COc1ccc(-c2nc3c(C(=O)NCCN(C)C)cccc3c3ccccc23)cc1', 'growth inhibition', '%', -12),
  ('COc1cc2c(c(C3C(=O)N(C)c4ccc(Br)cc43)c1OC)OCO2 (configuration not stated)', 'growth inhibition', '%', -1),
  ('S=C(Nc1cc(Cl)cc(Cl)c1)SCc1ccccc1', 'growth inhibition', '%', 30),
  ('CCCCCCCCCN1CCNC1=S', 'growth inhibition', '%', 6),
  ('NCC1CCNCC1', 'growth inhibition', '%', 2),
  ('CCCC(=O)N(C(=O)CCC)C1=C(Cl)C(=O)c2ccccc2C1=O', 'growth inhibition', '%', 56),
  ('CCCCC(CSC#N)SC#N (configuration not stated)', 'growth inhibition', '%', 12),
  ('COc1cc(CNC(=O)CCCCCCCCCCSC#N)ccc1O', 'growth inhibition', '%', 7),
  ('O=C(NC[N+]12CCO[B-]1(c1ccc(Br)cc1)OCC2)c1ccccc1O (configuration not stated)', 'growth inhibition', '%', 23),
  ('O=C1/C(=N/N=C(c2ccccc2)c2ccccc2)c2ccccc2-c2ccccc21', 'growth inhibition', '%', -1),
  ('CCCCCCCCCCN', 'growth inhibition', '%', 7),
  ('CCOC(=O)N1CCN(CCCCCCOc2ccc(C(C)(C)C)cc2)CC1', 'growth inhibition', '%', 31),
  ('Cc1c2cnccc2c(C)c2c1c1ccccc1n2CCCN', 'growth inhibition', '%', 5),
  ('CC(Nc1ccc(Cl)c(Cl)c1)c1ccncc1 (configuration not stated)', 'growth inhibition', '%', -26),
  ('COc1c(OC)c(C2(O)C(=O)N(C)c3ccccc32)c(OC)c(OC)c1C1(O)C(=O)N(C)c2ccccc21 (configuration not stated)', 'growth inhibition', '%', -3),
  ('CCOC(=O)c1c(N)sc2c1CCCCC2', 'growth inhibition', '%', -63),
  ('CN(C)CC1CCC/C(=C\c2ccc(Cl)c(Cl)c2)C1=O (configuration not stated)', 'growth inhibition', '%', -1),
  ('OCC(O)C(O)C(O)C(/C=N/Nc1ccccc1)=N\Nc1ccccc1 (configuration not stated)', 'growth inhibition', '%', 20),
  ('CCN(CC)CC(O)c1ccnc2c(O)cccc12 (configuration not stated)', 'growth inhibition', '%', -2);
